PROCEDURE DETAILS: in vivo
EXPERIMENTAL CONDITIONS: male, SD, rat, 30 mg/kg
MEASURED ATTRIBUTE: Kp

[[record]]
molecule = "COc1ncc(C)nc1C1=CC2CN(C(=O)c3ccc(F)cc3-n3nccn3)CC2C1 (stereo not shown)"
observed_measurement = 0.98


---

TARGET OR TEST SYSTEM: OX2 receptor (Homo sapiens)
Construct: host or cells: CHO-K1
Sequence (O43614 whole entry): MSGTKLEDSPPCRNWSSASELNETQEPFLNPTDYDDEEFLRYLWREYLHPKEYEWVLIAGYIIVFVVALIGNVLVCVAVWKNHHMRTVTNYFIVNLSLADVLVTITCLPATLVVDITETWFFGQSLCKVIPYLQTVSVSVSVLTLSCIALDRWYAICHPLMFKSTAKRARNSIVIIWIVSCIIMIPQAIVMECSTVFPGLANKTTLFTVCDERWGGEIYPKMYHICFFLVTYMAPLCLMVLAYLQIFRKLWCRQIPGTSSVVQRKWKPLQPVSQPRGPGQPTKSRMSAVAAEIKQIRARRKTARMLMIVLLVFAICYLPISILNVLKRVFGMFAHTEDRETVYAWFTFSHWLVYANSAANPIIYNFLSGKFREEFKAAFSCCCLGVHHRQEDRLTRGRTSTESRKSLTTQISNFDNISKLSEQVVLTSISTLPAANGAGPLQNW
PROCEDURE DETAILS: Orexin target function test (Cisbio HTRF IP-one), CHO-K1-OX2 cells, antagonism of EC80 Orexin 2 receptor agonist
Format: cell-based
EXPERIMENTAL CONDITIONS: ratio of OX1R IC50 to OX2R IC50
Threshold check on Selectivity: strictly below 100 is criterion met; on or above 100 is criterion not met.

[[record]]
compound = "[2H]C([2H])([2H])c1cnc(OC)c(C2=CC3CN(C(=O)c4ccc(OC)cc4-n4nccn4)CC3C2)n1 (centres unmarked)"
label_value = "criterion not met"

[[record]]
compound = "COc1cnc(OC)c(C2=CC3CN(C(=O)c4ccc(F)cc4-n4nccn4)CC3C2)n1 (centres unmarked)"
label_value = "criterion not met"

[[record]]
compound = "COc1nc(C2=CC3CN(C(=O)c4ccccc4-n4nccn4)CC3C2)nc(C)c1F (centres unmarked)"
label_value = "criterion met"

[[record]]
compound = "Cc1nc(C2=CC3CN(C(=O)c4c(F)cccc4-n4nccn4)CC3C2)nc2c1COCC2 (centres unmarked)"
label_value = "criterion met"

[[record]]
compound = "Cc1cnc(C#N)c(C2=CC3CN(C(=O)c4ccc(F)cc4-n4nccn4)CC3C2)n1 (centres unmarked)"
label_value = "criterion met"

[[record]]
compound = "CCOc1ccc(C(=O)N2CC3C=C(c4nc(C)cnc4OC)CC3C2)c(-n2nccn2)c1 (centres unmarked)"
label_value = "criterion not met"

[[record]]
compound = "Cc1nc(C2=CC3CN(C(=O)c4c(F)cccc4-n4nccn4)CC3C2)nc2c1CCCC2 (centres unmarked)"
label_value = "criterion not met"


---

TARGET OR TEST SYSTEM: OX1 receptor (Homo sapiens, UniProt O43613)
Construct: host or cells: CHO-K1
Sequence (O43613 whole entry): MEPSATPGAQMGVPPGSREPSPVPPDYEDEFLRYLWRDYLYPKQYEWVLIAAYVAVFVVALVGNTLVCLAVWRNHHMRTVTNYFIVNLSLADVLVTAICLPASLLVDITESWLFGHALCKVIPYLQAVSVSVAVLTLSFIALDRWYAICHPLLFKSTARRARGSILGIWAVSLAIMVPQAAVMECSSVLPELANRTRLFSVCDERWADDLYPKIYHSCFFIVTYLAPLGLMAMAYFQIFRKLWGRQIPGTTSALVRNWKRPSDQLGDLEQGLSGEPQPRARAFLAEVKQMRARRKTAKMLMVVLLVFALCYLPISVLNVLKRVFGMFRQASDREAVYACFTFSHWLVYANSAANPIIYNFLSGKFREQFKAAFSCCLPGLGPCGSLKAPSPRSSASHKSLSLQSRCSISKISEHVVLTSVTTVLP
PROCEDURE DETAILS: Orexin target function test (Cisbio HTRF IP-one), CHO-K1-OX1 cells, antagonism of EC80 Orexin A
Type: cell-based
MEASURED ATTRIBUTE: IC50 (nM)

[[record]]
compound = "[2H]C([2H])([2H])Oc1ccc(C(=O)N2CC3C=C(c4nc(C)c(F)c(C)n4)CC3C2)c(-n2nccn2)c1 (centres unmarked)"
target_or_test_system = "OX1 receptor (Homo sapiens, UniProt O43613)"
measured_attribute = "IC50"
observed_measurement = 3100

[[record]]
compound = "COc1cnc(OC)c(C2=CC3CN(C(=O)c4ccc(F)cc4-n4nccn4)CC3C2)n1 (centres unmarked)"
target_or_test_system = "OX1 receptor (Homo sapiens, UniProt O43613)"
measured_attribute = "IC50"
observed_measurement = 3610

[[record]]
compound = "COc1ncc(C)nc1C1=CC2CN(C(=O)c3ccc(F)cc3-n3nccn3)CC2C1 (centres unmarked)"
target_or_test_system = "OX1 receptor (Homo sapiens, UniProt O43613)"
measured_attribute = "IC50"
observed_measurement = 2400

[[record]]
compound = "COc1ccc(C(=O)N2CC3C=C(c4nc(C)c(F)c(C)n4)CC3C2)c(-n2nccn2)c1 (centres unmarked)"
target_or_test_system = "OX1 receptor (Homo sapiens, UniProt O43613)"
measured_attribute = "IC50"
observed_measurement = 2800

[[record]]
compound = "[2H]C([2H])([2H])Oc1cc(-n2nccn2)c(C(=O)N2CC3C=C(c4nc(C)c(F)c(C)n4)CC3C2)cn1 (centres unmarked)"
target_or_test_system = "OX1 receptor (Homo sapiens, UniProt O43613)"
measured_attribute = "IC50"
observed_measurement = 5000

[[record]]
compound = "[2H]C([2H])([2H])c1nc(C2=CC3CN(C(=O)c4ccc(F)cc4-n4nccn4)CC3C2)nc(C([2H])([2H])[2H])c1F (centres unmarked)"
target_or_test_system = "OX1 receptor (Homo sapiens, UniProt O43613)"
measured_attribute = "IC50"
observed_measurement = 3920

[[record]]
compound = "Cc1nc(C2=CC3CN(C(=O)c4c(F)cccc4-n4nccn4)CC3C2)nc2c1CCC2 (centres unmarked)"
target_or_test_system = "OX1 receptor (Homo sapiens, UniProt O43613)"
measured_attribute = "IC50"
observed_measurement = 2880

[[record]]
compound = "COc1ncc(C2CC2)nc1C1=CC2CN(C(=O)c3ccc(F)cc3-n3nccn3)CC2C1 (centres unmarked)"
target_or_test_system = "OX1 receptor (Homo sapiens, UniProt O43613)"
measured_attribute = "IC50"
observed_measurement = 1900

[[record]]
compound = "COc1cc(-n2nccn2)c(C(=O)N2CC3C=C(c4nc(C)c(F)c(C)n4)CC3C2)cn1 (centres unmarked)"
target_or_test_system = "OX1 receptor (Homo sapiens, UniProt O43613)"
measured_attribute = "IC50"
observed_measurement = 2780

[[record]]
compound = "Cc1nc(C2=CC3CN(C(=O)c4c(F)cccc4-n4nccn4)CC3C2)nc2ccoc12 (centres unmarked)"
target_or_test_system = "OX1 receptor (Homo sapiens, UniProt O43613)"
measured_attribute = "IC50"
observed_measurement = 2310

[[record]]
compound = "Cc1nc(C2=CC3CN(C(=O)c4ccc(F)cc4-n4nccn4)CC3C2)nc(C)c1F (centres unmarked)"
target_or_test_system = "OX1 receptor (Homo sapiens, UniProt O43613)"
measured_attribute = "IC50"
observed_measurement = 2300


---

PROCEDURE DETAILS: in vivo
EXPERIMENTAL CONDITIONS: male, SD, rat, plasma, po, 30 mg/kg
Cmax of 9000 ng/mL or higher: condition met. Under 9000 ng/mL: condition not met.

[[record]]
compound = "COc1nc(C2=CC3CN(C(=O)c4c(F)cccc4-n4nccn4)CC3C2)nc(C)c1F (centres unmarked) [Compound 8]"
label_value = "condition met"

[[record]]
compound = "COc1ccc(C(=O)N2CC3C=C(c4nc(C)cnc4OC)CC3C2)c(-n2nccn2)c1 (centres unmarked) [Compound 41]"
label_value = "condition not met"

[[record]]
compound = "CCOc1ccc(C(=O)N2CC3C=C(c4nc(C)cnc4OC)CC3C2)c(-n2nccn2)c1 (centres unmarked) [Compound 45]"
label_value = "condition met"

[[record]]
compound = "COc1ccc(C(=O)N2CC3C=C(c4nc(C)cnc4OC)CC3C2)c(-c2ncccn2)c1 (centres unmarked) [Compound 48]"
label_value = "condition met"

[[record]]
compound = "Cc1nc(C2=CC3CN(C(=O)c4ccc(F)cc4-n4nccn4)CC3C2)nc(C)c1F (centres unmarked) [Compound 2]"
label_value = "condition not met"

[[record]]
compound = "COc1ccc(C(=O)N2CC3C=C(c4nc(C)c(F)c(C)n4)CC3C2)c(-n2nccn2)c1 (centres unmarked) [Compound 5]"
label_value = "condition met"

[[record]]
compound = "COc1ncc(C)nc1C1=CC2CN(C(=O)c3ccc(F)cc3-n3cccn3)CC2C1 (centres unmarked) [Compound 61]"
label_value = "condition not met"


---

Below is a list of entries, each paired with its recorded pIC50 value.
TARGET OR TEST SYSTEM: OX2 receptor (Homo sapiens)
Construct: host or cells: CHO-K1
PROCEDURE DETAILS: Orexin target function test (Cisbio HTRF IP-one), CHO-K1-OX2 cells, antagonism of EC80 Orexin 2 receptor agonist
Format: cell-based
EXPERIMENTAL CONDITIONS: CHO-K1-OX2 cells, IP-one; read-out: hOX2R IC50
pIC50: −log10 of the molar value.
MEASURED ATTRIBUTE: pIC50

[[record]]
compound = "Cc1nc(C2=CC3CN(C(=O)c4c(F)cccc4-n4nccn4)CC3C2)nc2c1COCC2 (stereo not shown) [Compound 16]"
target_or_test_system = "OX2 receptor (Homo sapiens)"
measured_attribute = "pIC50"
observed_measurement = 7.70

[[record]]
compound = "COc1ncc(C)nc1C1=CC2CN(C(=O)c3ccc(F)cc3-n3cccn3)CC2C1 (stereo not shown) [Compound 61]"
target_or_test_system = "OX2 receptor (Homo sapiens)"
measured_attribute = "pIC50"
observed_measurement = 7.85

[[record]]
compound = "[2H]C([2H])([2H])Oc1ncc(C)nc1C1=CC2CN(C(=O)c3ccc(OC)cc3-n3nccn3)CC2C1 (stereo not shown) [Compound 58]"
target_or_test_system = "OX2 receptor (Homo sapiens)"
measured_attribute = "pIC50"
observed_measurement = 7.62

[[record]]
compound = "Cc1nc(C2=CC3CN(C(=O)c4c(F)cccc4-c4cc[nH]n4)CC3C2)nc(C)c1F (stereo not shown) [Compound 29]"
target_or_test_system = "OX2 receptor (Homo sapiens)"
measured_attribute = "pIC50"
observed_measurement = 7.70

[[record]]
compound = "CCc1c(C)nc(C2=CC3CN(C(=O)c4c(F)cccc4-n4nccn4)CC3C2)nc1C (stereo not shown) [Compound 11]"
target_or_test_system = "OX2 receptor (Homo sapiens)"
measured_attribute = "pIC50"
observed_measurement = 7.57

[[record]]
compound = "Cc1nc(C2=CC3CN(C(=O)c4c(F)cccc4-n4nccn4)CC3C2)nc(C)c1CF (stereo not shown) [Compound 38]"
target_or_test_system = "OX2 receptor (Homo sapiens)"
measured_attribute = "pIC50"
observed_measurement = 7.66

[[record]]
compound = "COc1cc(C(=O)N2CC3C=C(c4nc(C)cnc4OC)CC3C2)c(-n2nccn2)cn1 (stereo not shown) [Compound 42]"
target_or_test_system = "OX2 receptor (Homo sapiens)"
measured_attribute = "pIC50"
observed_measurement = 7.62

[[record]]
compound = "Cc1nc(C2=CC3CN(C(=O)c4c(F)cccc4-n4nccn4)CC3C2)nc(C)c1F (stereo not shown) [Compound 1]"
target_or_test_system = "OX2 receptor (Homo sapiens)"
measured_attribute = "pIC50"
observed_measurement = 7.85

[[record]]
compound = "COc1ccc(C(=O)N2CC3C=C(c4nc(OC)cnc4OC)CC3C2)c(-n2nccn2)c1 (stereo not shown) [Compound 53]"
target_or_test_system = "OX2 receptor (Homo sapiens)"
measured_attribute = "pIC50"
observed_measurement = 7.49

[[record]]
compound = "Cc1cnc(C#N)c(C2=CC3CN(C(=O)c4ccc(F)cc4-n4nccn4)CC3C2)n1 (stereo not shown) [Compound 62]"
target_or_test_system = "OX2 receptor (Homo sapiens)"
measured_attribute = "pIC50"
observed_measurement = 7.74

[[record]]
compound = "COc1ccc(C(=O)N2CC3C=C(c4nc(C)cnc4OC)CC3C2)c(-n2nccn2)c1 (stereo not shown) [Compound 41]"
target_or_test_system = "OX2 receptor (Homo sapiens)"
measured_attribute = "pIC50"
observed_measurement = 7.72

[[record]]
compound = "COc1ncc(C)nc1C1=CC2CN(C(=O)c3c(F)cccc3-c3ncccn3)CC2C1 (stereo not shown) [Compound 43]"
target_or_test_system = "OX2 receptor (Homo sapiens)"
measured_attribute = "pIC50"
observed_measurement = 7.55

[[record]]
compound = "Cc1nc(C2=CC3CN(C(=O)c4c(F)cccc4-n4nccn4)CC3C2)nc2c1OCC2 (stereo not shown) [Compound 19]"
target_or_test_system = "OX2 receptor (Homo sapiens)"
measured_attribute = "pIC50"
observed_measurement = 7.74

[[record]]
compound = "CCOc1ccc(C(=O)N2CC3C=C(c4nc(C)cnc4OC)CC3C2)c(-n2nccn2)c1 (stereo not shown) [Compound 45]"
target_or_test_system = "OX2 receptor (Homo sapiens)"
measured_attribute = "pIC50"
observed_measurement = 7.60

[[record]]
compound = "COc1ccc(C(=O)N2CC3C=C(c4nc(CF)cnc4OC)CC3C2)c(-n2nccn2)c1 (stereo not shown) [Compound 59]"
target_or_test_system = "OX2 receptor (Homo sapiens)"
measured_attribute = "pIC50"
observed_measurement = 7.77

[[record]]
compound = "COc1nc(C2=CC3CN(C(=O)c4ccccc4-n4nccn4)CC3C2)nc(C)c1F (stereo not shown) [Compound 27]"
target_or_test_system = "OX2 receptor (Homo sapiens)"
measured_attribute = "pIC50"
observed_measurement = 7.70

